Where do the numbers come from? From ChEMBL document CHEMBL3044854.

- TEST_DESCRIPTION: In vitro antiarthritic activity assessed as inhibition of bovine serum albumin denaturation at 800 ug/mL after 20 min by UV-Visible spectrophotometric analysis relative to control
- Assay type: functional
Category key, based on recorded inhibition: bucket A = under 80%, bucket B = from 80% up to 90%, bucket C = 90% and over

See these solved cases before continuing.
{"SMILES_STR": "O=C(NCCSCCOc1ccc2ccccc2c1-c1c(OCCSCCNC(=O)c2ccccc2)ccc2ccccc12)c1ccccc1", "ANSWER_LABEL": "bucket B"}
{"SMILES_STR": "O=C(Cc1cccs1)NCCSCCOc1ccccc1-c1ccccc1OCCSCCNC(=O)Cc1cccs1", "ANSWER_LABEL": "bucket B"}
{"SMILES_STR": "O=C(NCCSCCOc1ccc2ccccc2c1-c1c(OCCSCCNC(=O)c2ccco2)ccc2ccccc12)c1ccco1", "ANSWER_LABEL": "bucket C"}
{"SMILES_STR": "O=C(Cn1cnnn1)NCCSCCOc1ccc2ccccc2c1-c1c(OCCSCCNC(=O)Cn2cnnn2)ccc2ccccc12", "ANSWER_LABEL": "bucket C"}
{"SMILES_STR": "O=C(O)Cc1ccccc1Nc1c(Cl)cccc1Cl", "ANSWER_LABEL": "bucket A"}

Now consider the entry below.
Place this compound in its band: `O=C(NCCSCCOc1ccccc1-c1ccccc1OCCSCCNC(=O)c1ccco1)c1ccco1` bucket C

----------
Below: a set of entries, each annotated with reported Activity.
- TEST_DESCRIPTION: Anti-inflammatory activity in Homo sapiens (human) RBCs assessed as prevention of hemolysis at 100 ug/mL after 30 min by UV-Vis spectrophotometric analysis relative to control
- Type: functional, Erythrocyte
// return numeric value only (unit: %, not printed)

Recorded results for 3 compounds are shown here.
{"SMILES_STR": "O=C(Cc1cccs1)NCCSCCOc1ccc2ccccc2c1-c1c(OCCSCCNC(=O)Cc2cccs2)ccc2ccccc12", "MEASURE_UNIT": "%", "Activity": 72.8}
{"SMILES_STR": "O=C(Cn1cnnn1)NCCSCCOc1ccccc1-c1ccccc1OCCSCCNC(=O)Cn1cnnn1", "MEASURE_UNIT": "%", "Activity": 75.3}
{"SMILES_STR": "O=C(NCCSCCOc1ccccc1-c1ccccc1OCCSCCNC(=O)c1ccccc1)c1ccccc1", "MEASURE_UNIT": "%", "Activity": 60.7}

Attention now turns to another entry.
Given the compound `C[C@]12C=CC(=O)C=C1CC[C@@H]1[C@@H]2[C@@H](O)C[C@@]2(C)[C@H]1CC[C@]2(O)C(=O)CO` , what is its reported Activity? 84.8

----------
- TEST_DESCRIPTION: In vitro antiarthritic activity assessed as inhibition of bovine serum albumin denaturation after 20 min by UV-Visible spectrophotometric analysis
- Assay type: functional
PARAMETER: inhibition

Observe how each entry below is paired with its result.
{"SMILES_STR": "O=C(NCCSCCOc1ccc2ccccc2c1-c1c(OCCSCCNC(=O)c2ccco2)ccc2ccccc12)c1ccco1", "inhibition": "Dose-dependent effect"}
{"SMILES_STR": "O=C(Cc1cccs1)NCCSCCOc1ccc2ccccc2c1-c1c(OCCSCCNC(=O)Cc2cccs2)ccc2ccccc12", "inhibition": "Dose-dependent effect"}
{"SMILES_STR": "O=C(Cn1cnnn1)NCCSCCOc1ccccc1-c1ccccc1OCCSCCNC(=O)Cn1cnnn1", "inhibition": "Dose-dependent effect"}
{"SMILES_STR": "O=C(NCCSCCOc1ccc2ccccc2c1-c1c(OCCSCCNC(=O)c2ccccc2)ccc2ccccc12)c1ccccc1", "inhibition": "Dose-dependent effect"}

Find the recorded inhibition belonging to `O=C(Cn1cnnn1)NCCSCCOc1ccc2ccccc2c1-c1c(OCCSCCNC(=O)Cn2cnnn2)ccc2ccccc12` and report it. Dose-dependent effect

Bench note: what inhibition did `O=C(NCCSCCOc1ccccc1-c1ccccc1OCCSCCNC(=O)c1ccco1)c1ccco1` show? Dose-dependent effect

Which inhibition reading was recorded for the compound `O=C(NCCSCCOc1ccccc1-c1ccccc1OCCSCCNC(=O)c1ccccc1)c1ccccc1` ? Dose-dependent effect

Name the reported inhibition value associated with the compound `O=C(Cc1cccs1)NCCSCCOc1ccccc1-c1ccccc1OCCSCCNC(=O)Cc1cccs1` Dose-dependent effect
